Target: human BTK (Homo sapiens (Human), UniProt Q06187)
Sequence (Q06187 whole entry): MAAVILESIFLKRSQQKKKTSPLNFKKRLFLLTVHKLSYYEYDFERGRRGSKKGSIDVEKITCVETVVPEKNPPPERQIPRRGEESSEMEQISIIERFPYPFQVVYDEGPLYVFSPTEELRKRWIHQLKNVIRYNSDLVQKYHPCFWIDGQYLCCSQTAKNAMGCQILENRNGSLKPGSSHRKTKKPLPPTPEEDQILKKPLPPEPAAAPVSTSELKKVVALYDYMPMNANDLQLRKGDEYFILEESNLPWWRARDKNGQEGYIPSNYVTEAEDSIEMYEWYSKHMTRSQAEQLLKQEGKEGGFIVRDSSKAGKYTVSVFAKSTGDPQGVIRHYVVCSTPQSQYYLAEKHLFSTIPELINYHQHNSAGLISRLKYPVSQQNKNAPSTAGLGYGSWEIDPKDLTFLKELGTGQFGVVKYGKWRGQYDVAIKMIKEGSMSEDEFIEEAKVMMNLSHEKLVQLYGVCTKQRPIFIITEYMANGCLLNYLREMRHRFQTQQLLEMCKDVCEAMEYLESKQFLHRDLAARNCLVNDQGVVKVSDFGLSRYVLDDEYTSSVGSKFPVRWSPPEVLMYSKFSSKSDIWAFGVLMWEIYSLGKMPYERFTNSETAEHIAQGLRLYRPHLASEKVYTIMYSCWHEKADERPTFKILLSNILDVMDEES
Assay: BTK kinase inhibitory activity, ADP Glo kinase assay
Conditions: read-out: BTK IC50; recombinant purified human BTK, ATP 10 uM, Poly(Glu4,Tyr1) peptide, 1 hour 30° C.
test readout: pIC50
Please note pIC50 is a logarithmic value: minus log10 of concentration in mol/L. Answer with that number alone.

Task: # query: pIC50 of entry C=CC(=O)N1CC[C@H](F)[C@@H](Oc2nc(Nc3cnn(CC)c3)nc3[nH]ccc23)C1
Result: 8.92

Task: # query: pIC50 of entry C=CC(=O)N1CC[C@@H](F)[C@@H](Oc2nc(Nc3cnn(CC(F)F)c3)nc3[nH]cc(C)c23)C1
Result: 8.35
